Overview of reported IC50 across a group of compounds:
target: Acetylcholinesterase (Rattus norvegicus, UniProt P37136); construct: corpora striata dissected free, weighted and homogenized in 19 volumes; from tissue; host or cells: male Wistar rat corpora striata, homogenate; assay: in vitro inhibition of acetylcholinesterase assay; assay type: biochemical, rat (male Wistar, corpora striata)
Sequence (P37136 32-614): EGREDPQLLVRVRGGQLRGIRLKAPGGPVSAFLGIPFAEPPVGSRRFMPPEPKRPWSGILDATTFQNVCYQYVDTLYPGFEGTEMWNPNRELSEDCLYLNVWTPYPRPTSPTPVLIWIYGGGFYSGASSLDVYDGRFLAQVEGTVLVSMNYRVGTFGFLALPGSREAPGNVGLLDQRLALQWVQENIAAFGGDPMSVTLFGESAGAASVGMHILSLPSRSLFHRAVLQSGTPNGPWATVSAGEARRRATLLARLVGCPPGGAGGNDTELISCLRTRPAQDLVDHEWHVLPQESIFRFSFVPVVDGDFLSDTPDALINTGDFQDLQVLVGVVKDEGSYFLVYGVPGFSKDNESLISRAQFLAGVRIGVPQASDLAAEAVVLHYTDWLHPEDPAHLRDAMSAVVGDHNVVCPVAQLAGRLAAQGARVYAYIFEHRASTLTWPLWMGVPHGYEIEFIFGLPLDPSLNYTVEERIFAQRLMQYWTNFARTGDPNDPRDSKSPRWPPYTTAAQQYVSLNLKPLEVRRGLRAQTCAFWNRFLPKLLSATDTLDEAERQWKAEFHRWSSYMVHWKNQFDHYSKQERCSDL
Where a name gives a salt, the structure may show the parent alone.
Output should be the measured figure followed by the unit it is expressed in.

Answered cases to consult:
COMPOUND | IC50
COc1ccc2c(N=c3ccn(Cc4ccccc4)cc3)noc2c1 [hydrobromide] | 90 nM
c1ccc(CCCn2ccc(=Nc3noc4ccccc34)cc2)cc1 [hydrobromide] | 650 nM

State its IC50 for this compound: c1ccc(Cn2ccc(=Nc3noc4ccccc34)cc2)cc1 [hydrobromide]
280 nM

---

Molecular target: Monoamine Oxidase A (Rattus norvegicus, UniProt P21396)
Construct: serves as the tissue source for mitochondrial monoamine oxidase
Sequence (P21396 1-526): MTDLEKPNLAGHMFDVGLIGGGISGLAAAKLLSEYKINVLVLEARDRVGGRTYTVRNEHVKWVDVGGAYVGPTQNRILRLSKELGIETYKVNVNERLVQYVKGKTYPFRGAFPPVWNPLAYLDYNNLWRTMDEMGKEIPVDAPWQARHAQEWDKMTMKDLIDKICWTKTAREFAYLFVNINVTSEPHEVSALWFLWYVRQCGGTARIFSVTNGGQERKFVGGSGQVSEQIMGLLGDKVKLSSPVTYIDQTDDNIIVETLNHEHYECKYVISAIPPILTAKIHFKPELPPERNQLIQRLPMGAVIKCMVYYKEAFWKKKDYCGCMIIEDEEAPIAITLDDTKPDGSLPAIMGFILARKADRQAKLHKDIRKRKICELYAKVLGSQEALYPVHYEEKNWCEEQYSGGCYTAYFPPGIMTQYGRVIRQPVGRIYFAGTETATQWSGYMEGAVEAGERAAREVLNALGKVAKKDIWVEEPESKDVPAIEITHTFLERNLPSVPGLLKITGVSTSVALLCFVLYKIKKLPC
Test: in vitro inhibition of monoamine oxidase assay (monoamine oxidase A)
Details: rat brain mitochondria, [3H]-5-hydroxytryptamine 200 μM, pH 7.4, 37° C., 30 min; log-probit
Counter-ions that a name gives are not always drawn.
Overview of reported IC50 across a group of molecules:
Could you give me the number in µM? Just the number is fine.

State its IC50 for this molecule: c1ccc(CCn2ccc(=Nc3noc4ccccc34)cc2)cc1 [hydrobromide]
3

State its IC50 for this molecule: CCCn1ccc(=Nc2noc3cc(Cl)ccc23)cc1 [hydrochloride]
1.65

State its IC50 for this molecule: COc1ccc2c(N=c3ccn(Cc4ccccc4)cc3)noc2c1 [hydrobromide]
3

State its IC50 for this molecule: c1ccc(Cn2ccc(=Nc3noc4ccccc34)cc2)cc1 [hydrobromide]
9

---

molecular target: Monoamine Oxidase B (Rattus norvegicus); construct: serves as the tissue source for mitochondrial monoamine oxidase; experiment: in vitro inhibition of monoamine oxidase assay (monoamine oxidase B); settings: rat brain mitochondria, [14C]-phenethylamine 200 μM, pH 7.4, 37° C., 30 min; log-probit
Sequence (P19643 whole entry): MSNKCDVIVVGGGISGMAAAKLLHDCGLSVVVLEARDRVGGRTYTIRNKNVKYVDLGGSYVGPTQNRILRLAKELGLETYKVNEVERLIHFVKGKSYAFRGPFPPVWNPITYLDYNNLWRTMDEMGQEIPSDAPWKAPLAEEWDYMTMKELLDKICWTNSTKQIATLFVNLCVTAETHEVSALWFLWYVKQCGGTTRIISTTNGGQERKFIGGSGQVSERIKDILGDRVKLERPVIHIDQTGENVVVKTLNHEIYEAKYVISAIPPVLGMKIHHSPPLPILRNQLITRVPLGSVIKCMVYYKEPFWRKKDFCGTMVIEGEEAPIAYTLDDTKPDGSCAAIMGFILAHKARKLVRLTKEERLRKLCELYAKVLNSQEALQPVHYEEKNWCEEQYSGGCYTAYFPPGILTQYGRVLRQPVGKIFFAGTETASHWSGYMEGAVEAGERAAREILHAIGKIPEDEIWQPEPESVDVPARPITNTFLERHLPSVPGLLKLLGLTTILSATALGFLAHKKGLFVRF
Counter-ions that a name gives are not always drawn.
ASSAY METRIC: pIC50
Field pIC50 (float): negative decimal logarithm of the concentration in molar.

Answered cases to consult:
COMPOUND | ASSAY METRIC | OBSERVED MEASUREMENT
c1ccc(CCn2ccc(=Nc3noc4ccccc34)cc2)cc1 [hydrobromide] | pIC50 | 4.80
CCCn1ccc(=Nc2noc3cc(Cl)ccc23)cc1 [hydrochloride] | pIC50 | 4.57
c1ccc(Cn2ccc(=Nc3noc4ccccc34)cc2)cc1 [hydrobromide] | pIC50 | 4.47

Proceeding to the next compound to report its pIC50.
Please report pIC50 with Monoamine Oxidase B (Rattus norvegicus) for item COc1ccc2c(N=c3ccn(Cc4ccccc4)cc3)noc2c1 [hydrobromide] .
4.60
